Attribution: ChEMBL document CHEMBL4028847

Target: Cannabinoid receptor 2 (Homo sapiens)
Assay: Activity at CB2 receptor (unknown origin)
readout_label: pEC50
// pEC50 is dimensionless: -log10 of concentration (M)

pEC50 lookup needed for CCOc1nc(NC2CCCC2)nc(N2CCN(CC[18F])CC2)n1 , thanks.
7.40

----------
Field: Ki. Provide a value for each of the compounds that follow.
Molecular target: Cannabinoid receptor 2 (Homo sapiens, UniProt P34972)
Sequence (P34972 whole entry): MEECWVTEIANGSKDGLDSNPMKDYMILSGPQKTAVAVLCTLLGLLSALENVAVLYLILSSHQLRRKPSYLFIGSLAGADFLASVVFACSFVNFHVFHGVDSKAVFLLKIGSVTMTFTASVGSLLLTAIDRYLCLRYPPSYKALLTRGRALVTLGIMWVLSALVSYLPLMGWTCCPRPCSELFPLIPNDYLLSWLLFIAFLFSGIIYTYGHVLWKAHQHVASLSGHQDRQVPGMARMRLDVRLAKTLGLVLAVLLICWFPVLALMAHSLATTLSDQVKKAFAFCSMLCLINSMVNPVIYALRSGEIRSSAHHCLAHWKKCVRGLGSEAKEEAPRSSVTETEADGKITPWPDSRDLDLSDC
Quick note: give the figure in nM, leave out the unit.

Ki lookup needed for COc1cccc2c(=O)c(C(=O)NC34CC5CC(CC(C5)C3)C4)cn(CCOCC[18F])c12 , thanks.
1.2

Ki lookup needed for CCCc1sc(NC(=O)C23CC4CC(CC(C4)C2)C3)c(C(=O)O[11CH3])c1C , thanks.
4.3

----------
readout_label: pIC50
// pIC50 is dimensionless: -log10 of concentration (M)

Enter reported pIC50 observed with Cannabinoid receptor 2 (Homo sapiens) for [2H]C([2H])([18F])Oc1nc(NCCc2ccc(F)cc2)nc(-c2ccc(Cl)c(C(C)(C)O)c2)n1
8.85

----------
Target: Cannabinoid receptor 1 (Homo sapiens)
Sequence (P21554 whole entry): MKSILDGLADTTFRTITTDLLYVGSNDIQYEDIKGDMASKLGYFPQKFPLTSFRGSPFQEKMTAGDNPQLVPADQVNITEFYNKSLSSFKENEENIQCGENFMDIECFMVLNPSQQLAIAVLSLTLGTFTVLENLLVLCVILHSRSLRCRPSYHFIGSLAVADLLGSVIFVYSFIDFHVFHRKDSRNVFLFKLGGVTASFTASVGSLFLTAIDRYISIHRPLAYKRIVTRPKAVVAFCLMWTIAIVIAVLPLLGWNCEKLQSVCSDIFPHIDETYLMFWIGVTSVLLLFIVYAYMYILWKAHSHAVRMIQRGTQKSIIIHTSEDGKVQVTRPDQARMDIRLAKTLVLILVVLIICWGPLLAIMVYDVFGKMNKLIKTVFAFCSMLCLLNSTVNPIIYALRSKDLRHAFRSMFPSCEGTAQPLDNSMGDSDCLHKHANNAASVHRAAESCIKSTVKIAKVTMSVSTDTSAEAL
Assay: Agonist activity at human CB1 receptor expressed in mouse AtT-20 cells co expressing GIRK by FLIPR assay
pEC50: −log10 of the molar value.
readout_label: pEC50

pEC50 lookup needed for CC(C)[C@H](NC(=O)c1nn(CC2CCCCC2)c2ccccc12)C(N)=O , thanks.
8.11 to 8.68

pEC50 lookup needed for CC(C)[C@H](NC(=O)c1nn(Cc2ccc(F)cc2)c2ccccc12)C(N)=O , thanks.
8.11 to 8.68

pEC50 lookup needed for CC(C)[C@H](NC(=O)c1nn(CCCCCF)c2ccccc12)C(N)=O , thanks.
8.11 to 8.68

pEC50 lookup needed for CCCCCn1nc(C(=O)N[C@H](C(N)=O)C(C)C)c2ccccc21 , thanks.
8.11 to 8.68

pEC50 lookup needed for CCCCn1cc(C(=O)c2ccccc2OC)c2ccccc21 , thanks.
6.75

pEC50 lookup needed for CCCCCn1cc(C(=O)c2ccccc2OC)c2ccccc21 , thanks.
7.27
